# MEASUREMENT_CONTEXT: buffer; pH 7.4; 200.0 µM
Entries annotated with measured solubility kinetic
EXPERIMENTAL_ENDPOINT: solubility kinetic

smiles_repr=COc1ccccc1NC(=O)COC(=O)c1[nH]c(=O)[nH]c(=O)c1N obs_value="> 50.1 µg/mL"
smiles_repr=O=C1CSc2ccc(C(=O)NCc3ccccn3)cc2N1 obs_value="> 44.9 µg/mL"
smiles_repr=Cc1ccc(SCC(=O)NC(=O)NCCC(C)C)c(C)c1 obs_value="1.4 µg/mL"

====

Entries annotated with measured solubility kinetic
# MEASUREMENT_CONTEXT: buffer; pH 7.4; 200.0 µM
EXPERIMENTAL_ENDPOINT: solubility kinetic

molecule="COc1ccccc1N(CC1CO1)S(=O)(=O)c1ccccc1 (stereo not drawn)" obs_value="> 47.9 µg/mL"
molecule=COc1ccc(C(=O)OCC(=O)c2c(N)n(C)c(=O)n(C)c2=O)c(OC)c1OC obs_value="> 61.1 µg/mL"
molecule="CC(Oc1cccnc1[N+](=O)[O-])C(=O)N1CCc2ccccc21 (stereo not drawn)" obs_value="> 47 µg/mL"
molecule="O=C(NC1CC1)C1CC(=O)N(c2cccc(Cl)c2Cl)C1 (stereo not drawn)" obs_value="> 47 µg/mL"
molecule=O=[N+]([O-])c1ccccc1/C=C/c1ccc2ccccc2n1 obs_value="< 0.3 µg/mL"
molecule=Cc1nn(-c2ccccc2)c(N)c1N=O obs_value="> 30.3 µg/mL"
molecule=COc1ccc(CCNCc2sccc2C)cc1.Cl obs_value="> 44.7 µg/mL"
molecule=CN(CC(=O)Nc1cccc(F)c1)C(=O)CC1CCCC1 obs_value="> 43.9 µg/mL"
molecule="Cc1ccc(OCC(=O)NC(C)c2ccccc2)cc1 (stereo not drawn)" obs_value="> 40.4 µg/mL"
molecule=COC(=O)c1cccc(NC(=S)NC(C)C)c1 obs_value="> 37.8 µg/mL"
molecule=O=C(Cc1cccs1)NCCc1csc(-c2ccccc2)n1 obs_value="> 49.3 µg/mL"
molecule="Cc1ccc2c(c1)N(CC(=O)NCC1CCCO1)C(=O)CO2 (stereo not drawn)" obs_value="> 45.7 µg/mL"
molecule=O=C(CSc1nncs1)NC(=O)NC1CCCC1 obs_value="> 43 µg/mL"

====

# MEASUREMENT_CONTEXT: buffer; pH 7.4; 200.0 µM
The label depends only on solubility kinetic: fulfilled if it is at least 40 µg/mL, not fulfilled if it is smaller.

compound="COC(=O)C(NC(=O)CN1C(=O)c2ccccc2C1=O)c1ccc(O)c(OC)c1 (stereo not given)" class_label=fulfilled
compound=O=C(COc1ccccc1F)NCc1ccc(-n2cccc2)cc1 class_label="not fulfilled"
compound=Cc1cccc(NC(=O)c2cc3c(s2)-c2c(C)cccc2OC3)n1 class_label="not fulfilled"
compound=CCCCCCOc1ccc(C(=O)NCCCn2ccnc2)cc1 class_label=fulfilled
compound=CN(C)CCCNC(=S)Nc1ccc(-c2ccccc2)cc1 class_label=fulfilled
compound="CCOC(=O)CNC(=O)N1CCCC(N(C)CCc2ccccc2)C1 (stereo not given)" class_label=fulfilled
compound=O=S1(=O)CCN(Cc2cccc(C(F)(F)F)c2)CC1 class_label=fulfilled
compound=COc1cc(OC)cc(C(=O)O/N=C(\N)c2cccc(C)c2)c1 class_label="not fulfilled"
compound=O=C(Nc1ncccn1)c1cccc(Cl)c1 class_label="not fulfilled"
compound=CC(=O)Nc1ccc(Oc2ccc(NC(C)=O)c(NC(C)=O)c2)cc1 class_label=fulfilled
compound=CCOc1ccccc1NC(=O)C(=O)CC(=O)c1ccc(OC)cc1 class_label="not fulfilled"
compound="Cc1cc(NC(=O)C2CC(=O)N(c3ccc(F)cc3)C2)no1 (stereo not given)" class_label=fulfilled
compound=CN(c1ccccc1)c1nc(N)c([N+](=O)[O-])c(N2CCCCCC2)n1 class_label="not fulfilled"
compound=COc1ccccc1C(=O)NCCC(=O)Nc1ncccc1O class_label=fulfilled
compound="COc1ccc(N2C(=S)NC3CS(=O)(=O)CC32)cc1 (stereo not given)" class_label=fulfilled

Data provenance: PubChem BioAssay AID1996
